assay method text: in vivo
condition parameters: male, Sprague-Dawley, rat, iv, 1 mg/kg

| compound | level at 8 h |
| --- | --- |
| NC(=O)N(CCC(=O)O)NC(=O)[C@H](CO)NC(=O)[C@H](CO)NC(=O)N(N)Cc1ccccc1 [K883] | 1.52 ng/mL |

----------
assay method text: in vitro
condition parameters: mouse, serum
Where no end group is shown, it is not given here.
assay endpoint: metabolised at 3 h

| sequence content | result |
| --- | --- |
| RPPGFSPFR [bradykinin] | ~97% |

----------
assay method text: in vivo
condition parameters: male, Sprague-Dawley, rat, iv, 1 mg/kg, MRTlast, iv 1 mg/kg, individual rats
assay endpoint: MRT last (min)

| compound | result |
| --- | --- |
| NC(=O)N(CCC(=O)O)NC(=O)[C@H](CO)NC(=O)[C@H](CO)NC(=O)N(N)Cc1ccccc1 [K883] | 32.1 |

----------
assay method text: in vivo
condition parameters: male, Sprague-Dawley, rat, iv, 1 mg/kg
assay endpoint: level at 2 h

| smiles input | result |
| --- | --- |
| NC(=O)N(CCC(=O)O)NC(=O)[C@H](CO)NC(=O)[C@H](CO)NC(=O)N(N)Cc1ccccc1 | 135 ng/mL |

----------
assay method text: in vivo
condition parameters: male, Sprague-Dawley, rat, iv, 1 mg/kg, AUClast, iv 1 mg/kg, individual rats

| smiles input | AUC(0-t), ng·h/mL |
| --- | --- |
| NC(=O)N(CCC(=O)O)NC(=O)[C@H](CO)NC(=O)[C@H](CO)NC(=O)N(N)Cc1ccccc1 | 3770 |

----------
assay method text: in vivo
condition parameters: male, Sprague-Dawley, rat, iv, 1 mg/kg, MRTlast, Mean, iv 1 mg/kg, mean of 3 rats

| smiles input | MRT last |
| --- | --- |
| NC(=O)N(CCC(=O)O)NC(=O)[C@H](CO)NC(=O)[C@H](CO)NC(=O)N(N)Cc1ccccc1 | 33.4 min |

----------
assay method text: in vivo
condition parameters: male, Sprague-Dawley, rat, iv, 1 mg/kg

| molecule | level at 0.5 h (ng/mL) |
| --- | --- |
| NC(=O)N(CCC(=O)O)NC(=O)[C@H](CO)NC(=O)[C@H](CO)NC(=O)N(N)Cc1ccccc1 [K883] | 2910 |

----------
assay method text: Stability of endomorphin-2 in mouse serum
Assay type: in vitro ADME
condition parameters: read-out: amount (AUC O.D.254) in mouse serum less than amount originally placed

| molecule | metabolised at 2 h |
| --- | --- |
| NC(=O)C(Cc1ccccc1)NC(=O)C(Cc1ccccc1)NC(=O)[C@@H]1CCCN1C(=O)C(N)Cc1ccc(O)cc1 (stereo partly shown) [Endomorphin-2] | ~95% |

----------
assay method text: in vivo
condition parameters: male, Sprague-Dawley, rat, iv, 1 mg/kg
assay endpoint: level at 6 h (ng/mL)

| smiles input | measure unit | result |
| --- | --- | --- |
| NC(=O)N(CCC(=O)O)NC(=O)[C@H](CO)NC(=O)[C@H](CO)NC(=O)N(N)Cc1ccccc1 | ng/mL | 5.1 |

----------
Listed compounds paired with reported half-life
assay method text: in vitro
condition parameters: mouse, mouse serum
assay endpoint: half-life

| compound | assay endpoint | result |
| --- | --- | --- |
| N[C@@H](Cc1ccccc1)C(=O)N[C@@H](CO)C(=O)N[C@@H](CO)C(=O)N[C@@H](CCC(=O)O)C(=O)O [FSSE, reference compound] | half-life | 1 h |
| NC(=O)N(CCC(=O)O)NC(=O)[C@H](CO)NC(=O)[C@H](CO)NC(=O)N(N)Cc1ccccc1 | half-life | > 15 h |
